Tested on: HT-29 colorectal carcinoma
Test: Cytotoxicity assay (monolayer), HT-29;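 further: monolayer cultures tested in triplicate, compound exposure for three days against DMSO vehicle controls, EC50 fitted from dose-response curves and averaged across all tests and lots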
Format: cell-based
Conditions: HT29, ML (monolayer); read-out: HT29 (EC50 Ave) ML
Primed or numbered codes have the meaning given here. * marks the point of attachment. 3Am‑VBL″ = vinblastine conjugate; PEG(11) = PEG(11) linker; PEG(29) = PEG(29) linker; DMAB = not defined here; 3Am = not defined here; Cbz = O=C(OCc1ccccc1)*; Boc = CC(C)(C)OC(=O)*; Piv = CC(C)(C)C(=O)*; VBL = vinblastine
Give EC50 for every item shown.

Name the reported EC50 value associated with the substance CBz-YIYGSFK(BOC)-PEG(11)-3Am-VBL (Cbz-YIYGSFK(Boc)-{PEG(11)-3Am-VBL}; reading uncertain; also: printed as CBz-YIYGSFK(BOC)-PEG(11)-3Am-VBL) > 100 nM

Name the reported EC50 value associated with the substance Pv-GRPRTSSFAE(DMAB)G-3Am-VBL (Piv-GRPRTSSFAE(DMAB)G-{3Am‑VBL″}; not fully specified; reading uncertain) > 100 nM

Name the reported EC50 value associated with the substance `CBz-E(Bzl)YIFGSFK(BOC)-PEG(11)-3Am-VBL` > 100 nM

Name the reported EC50 value associated with the substance Ac-YIYGSFS-PEG(11)-3Am-VBL (N-acetyl; PEG(11) linker; vinblastine conjugate) > 100 nM

Name the reported EC50 value associated with the substance CBz-GRPRTSSFAEG-3Am-VBL (Cbz-GRPRTSSFAEG-{3Am-VBL}; reading uncertain; also: printed as CBz-GRPRTSSFAEG-3Am-VBL) > 100 nM

Name the reported EC50 value associated with the substance H-YIYGSFK-PEG(29)-3Am-VBL x 2TFA (H-YIYGSFK-{PEG(29)-3Am-VBL}; reading uncertain; also: 2TFA salt) 20 to 100 nM
